Values compiled from patent US20100105567A1.

Experiment: Retention of arrayed peptides on a polypropylene sheet after successive washes
Format: physicochemical
Conditions: Control array (not washed); scan after third wash; slide background subtracted
No end group written: not given here. TAMRA = rhodamine dye label at the N-terminus (mixture of 5- and 6-isomers)
MEASURE_NAME: Corrected signal

// returns reported Corrected signal for input TAMRA-F-G-F-G-F-G-F-S-F-A-F-D-F-G-F ({TAMRA}-FGFGFGFSFAFDFGF) [Peptide P1-3]
50,311,907

// same read-out, input: TAMRA-F-G-F-S-F-A-F-D-F-G-F ({TAMRA}-FGFSFAFDFGF) [Peptide P1-1]
84,434,769

Check TAMRA-F-G-F-G-F-G-F-G-F-G-F-S-F-A-F-D-F-G-F ({TAMRA}-FGFGFGFGFGFSFAFDFGF) [Peptide P1-5] too.
49,585,053

// query: TAMRA-F-G-F-G-F-G-F-G-F-S-F-A-F-D-F-G-F ({TAMRA}-FGFGFGFGFSFAFDFGF) [Peptide P1-4]
42,195,247

// repeat for TAMRA-F-G-F-G-F-S-F-A-F-D-F-G-F ({TAMRA}-FGFGFSFAFDFGF) [Peptide P1-2] and report
51,820,628

----------
Experiment: Retention of arrayed peptides on a polypropylene sheet after successive washes
Format: physicochemical
Conditions: Test array; after second wash (1 M NaCl, 10 mM tris-HCl pH 8.0, 30 minutes)
Experimental: Further experiments were undertaken to investigate the retention of peptides P1-1 to P1-5 and P2-1 to P2-2, shown in Table 3, on a polypropylene surface. The polypropylene sheet was wiped with 50% (v/v) aqueous acetonitrile prior to use. 8×replicate 20 nl volumes of 1 μM peptides P1-1 to P1-5 and P2-1 to P2-2 and TAMRA in dimethyl sulphoxide (DMSO) were dispensed at 1 mm spacing to a 3″×1″×1 mm polypropylene sheet using the Piezorray system (PerkinElmer LAS). […]
No end group written: not given here. TAMRA = rhodamine dye label at the N-terminus (mixture of 5- and 6-isomers)
Can you tell me Average fluorescence for the items I'm about to list?

Quick one: Average fluorescence for TAMRA-F-G-F-G-F-S-F-A-F-D-F-G-F ({TAMRA}-FGFGFSFAFDFGF) [Peptide P1-2] ?
135,695,639

What do we get for TAMRA-F-G-F-G-F-G-F-G-F-G-F-S-F-A-F-D-F-G-F ({TAMRA}-FGFGFGFGFGFSFAFDFGF) [Peptide P1-5] ?
167,865,473

TAMRA-F-G-F-S-F-A-F-D-F-G-F ({TAMRA}-FGFSFAFDFGF) [Peptide P1-1] , same question.
127,216,792

Query TAMRA-F-G-F-G-F-G-F-S-F-A-F-D-F-G-F ({TAMRA}-FGFGFGFSFAFDFGF) [Peptide P1-3] next
148,725,456

How about TAMRA-F-G-F-G-F-G-F-G-F-S-F-A-F-D-F-G-F ({TAMRA}-FGFGFGFGFSFAFDFGF) [Peptide P1-4] ?
159,100,527

----------
Assay: Retention of arrayed peptides on a polypropylene sheet after successive washes
Assay type: physicochemical
Details: Control array (not washed); scan after first wash; slide background subtracted
Procedure: Further experiments were undertaken to investigate the retention of peptides P1-1 to P1-5 and P2-1 to P2-2, shown in Table 3, on a polypropylene surface. The polypropylene sheet was wiped with 50% (v/v) aqueous acetonitrile prior to use. 8×replicate 20 nl volumes of 1 μM peptides P1-1 to P1-5 and P2-1 to P2-2 and TAMRA in dimethyl sulphoxide (DMSO) were dispensed at 1 mm spacing to a 3″×1″×1 mm polypropylene sheet using the Piezorray system (PerkinElmer LAS). […]
No end group written: not given here. TAMRA = rhodamine dye label at the N-terminus (mixture of 5- and 6-isomers)
MEASURE_NAME: Corrected signal

State the recorded Corrected signal for this entry: TAMRA-F-G-F-G-F-G-F-G-F-G-F-S-F-A-F-D-F-G-F ({TAMRA}-FGFGFGFGFGFSFAFDFGF) [Peptide P1-5]
52,655,810

Next entry: TAMRA-F-G-F-G-F-S-F-A-F-D-F-G-F ({TAMRA}-FGFGFSFAFDFGF) [Peptide P1-2]
53,588,457

Moving on to the next substance: TAMRA-F-G-F-G-F-G-F-G-F-S-F-A-F-D-F-G-F ({TAMRA}-FGFGFGFGFSFAFDFGF) [Peptide P1-4]
40,595,958

Next entry: TAMRA-F-G-F-G-F-G-F-S-F-A-F-D-F-G-F ({TAMRA}-FGFGFGFSFAFDFGF) [Peptide P1-3]
46,051,796

// query: TAMRA-F-G-F-S-F-A-F-D-F-G-F ({TAMRA}-FGFSFAFDFGF) [Peptide P1-1]
97,571,341

----------
Could you please report measured Corrected signal for the items listed next?
Assay: Retention of arrayed peptides on a polypropylene sheet after successive washes
Assay type: physicochemical
Conditions: Control array (not washed); scan after second wash; slide background subtracted
No end group written: not given here. TAMRA = rhodamine dye label at the N-terminus (mixture of 5- and 6-isomers)

So what does the record say about Corrected signal for TAMRA-F-G-F-G-F-G-F-G-F-G-F-S-F-A-F-D-F-G-F ({TAMRA}-FGFGFGFGFGFSFAFDFGF) [Peptide P1-5] ?
53,567,975

How about this substance: TAMRA-F-G-F-S-F-A-F-D-F-G-F ({TAMRA}-FGFSFAFDFGF) [Peptide P1-1]
88,584,083

Also check TAMRA-F-G-F-G-F-S-F-A-F-D-F-G-F ({TAMRA}-FGFGFSFAFDFGF) [Peptide P1-2]
58,801,042

Now consider TAMRA-F-G-F-G-F-G-F-S-F-A-F-D-F-G-F ({TAMRA}-FGFGFGFSFAFDFGF) [Peptide P1-3] .
50,030,806

Repeat with TAMRA-F-G-F-G-F-G-F-G-F-S-F-A-F-D-F-G-F ({TAMRA}-FGFGFGFGFSFAFDFGF) [Peptide P1-4]
42,662,569

----------
Assay: Retention of arrayed peptides on a polypropylene sheet after successive washes
Type: physicochemical
Conditions: Test array; after third wash; slide background subtracted
No end group written: not given here. TAMRA = rhodamine dye label at the N-terminus (mixture of 5- and 6-isomers)
Consider the following substances; for each one, report its Corrected signal.

Name the reported Corrected signal value associated with the substance TAMRA-F-G-F-G-F-S-F-A-F-D-F-G-F ({TAMRA}-FGFGFSFAFDFGF) [Peptide P1-2]
1,895,931

Also, TAMRA-F-G-F-G-F-G-F-G-F-S-F-A-F-D-F-G-F ({TAMRA}-FGFGFGFGFSFAFDFGF) [Peptide P1-4] please.
11,383,947

Here is the next substance: TAMRA-F-G-F-G-F-G-F-S-F-A-F-D-F-G-F ({TAMRA}-FGFGFGFSFAFDFGF) [Peptide P1-3]
1,420,417

Subsequent entry: TAMRA-F-G-F-S-F-A-F-D-F-G-F ({TAMRA}-FGFSFAFDFGF) [Peptide P1-1]
644,716

Note, next up: TAMRA-F-G-F-G-F-G-F-G-F-G-F-S-F-A-F-D-F-G-F ({TAMRA}-FGFGFGFGFGFSFAFDFGF) [Peptide P1-5]
23,514,817
